B1: TPR t1 (parent)
chain: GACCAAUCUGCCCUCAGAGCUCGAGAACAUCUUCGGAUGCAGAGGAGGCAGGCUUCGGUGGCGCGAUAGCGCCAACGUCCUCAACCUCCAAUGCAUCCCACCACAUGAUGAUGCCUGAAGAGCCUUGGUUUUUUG

- Variants of: B1
- Experimental Details: polymerase ribozyme fitness, log enrichment relative to wild type (log ratio); higher = more active; in vitro selection for triplet polymerase activity
Response field class: enum, chosen by comparing polymerase ribozyme fitness (log ratio) against LOW = under -4, MEDIUM = from -4 up to -1, HIGH = -1 and over

Some solved entries appear below for comparison.
| Seq String | Class Assignment |
| --- | --- |
| GACCAAUCUGCCCUCAGAGCUCGAGAACAUCUUCGGAUGCAGAGGAGGCAGGCUUCGGUGGCGCGAUAGCGCCAACGUCCUCAACCUCCAUUGCAUCCCACCACAUGAUGAUGCCUGAAGAGCCUUGGUUUCUUG | MEDIUM |
| GAUCACUCUGCCCUCAGAGCUCGAGAACAUCUUCGGAUGCAGAGGAGGCAGGCUCCGGUGGCGCGAUAGCGCCAACGUCCUCAACCUCCAAUGCAUCCCACCACAUGAUGAUGCCUGAAGAGCCUUGGUUUUUUG | MEDIUM |
| GACCAAUCUGCCCUCAGAGCUCGAGAACAUUUUCGGAUGCAGAGGAGGCAGGCUUCGGUUGCGCGAUAGCGCCAACGUCCUCAACCUCCAAUGCAUCCCACCACAUGAUGAUGCCUGAAGAGCCUUGGUUUUUUG | LOW |

Task: Assign a bin to GACCAAUCUGGCUUCAGAGCUCGAGAACAUCUUCGGAUGCAGAGGAGGCAGGCUUUGGUGGCGCGAUAACGCCAACCUCCUCAACCUCCAAUGCAUCCCAACACAUGAUGAUGCCUGAAGAGCCUUGGUUUUUUG
Output: LOW

Task: # classify by polymerase ribozyme fitness (log ratio) band: GACCAAUCUGCUCUCAGAGCUCGAGAACAUCUUCGGUUGCAGAGGAGGCAGGCUUCGGUCGCGCGAUAGCGCCAACGUCCUCAACCUCCAAUGCAUCCCACCACAUGAUGAUGCCUGAAGAGCCUUGGUUUUUUG
Output: MEDIUM

Task: Tag the class for GAUCAAUCUGCCCUCAGAGCUCGAGAACAUCUUCGAAUGCAGAGGAGGCCGGCUUCGGUGGCGCGAUAGCGCCAACGUCCUCAACCUCCAAUGCAUCCCACCACAUGAUGAUGCCUGAAUAGCCUUGGUUUUUUG
Output: MEDIUM
